Test: Ratio of drug level in C57BL/6J mouse brain to plasma at 10 mg/kg, ip incubated for 1 hrs by LC/MS/MS analysis
Format: ADME, organism-based
Details: read-out: BPR

COMPOUND: CC(C)(C)/C(N)=N/C(=N/S(=O)(=O)N1CCC(F)(F)CC1)N1CC(c2ccccc2)C(c2ccc(Cl)cc2)=N1 (stereo unspecified)
Kp at 1 h: 0.14
//
COMPOUND: N/C(=N\C(=N\S(=O)(=O)N1CCC(F)(F)CC1)N1CC(c2ccccc2)C(c2ccc(Cl)cc2)=N1)c1ccc(Cl)cc1 (stereo unspecified)
Kp at 1 h: 0.14
//
COMPOUND: CS/C(N)=N/C(=N/S(=O)(=O)N1CCC(C(F)(F)F)CC1)N1CC(c2ccccc2)C(c2ccc(Cl)cc2)=N1 (stereo unspecified)
Kp at 1 h: 0.036
//
COMPOUND: C/C(N)=N\C(=N\S(=O)(=O)N1CCCCC1)N1CC(c2ccccc2)C(c2ccc(Cl)cc2)=N1 (stereo unspecified)
Kp at 1 h: 0.04
//
COMPOUND: CCN(CC)S(=O)(=O)/N=C(/N=C(/C)N)N1CC(c2ccccc2)C(c2ccc(Cl)cc2)=N1 (stereo unspecified)
Kp at 1 h: 0.025
//
COMPOUND: CC(C)(C)/C(N)=N/C(=N/S(=O)(=O)N1CCC(C(F)(F)F)CC1)N1CC(c2ccccc2)C(c2ccc(Cl)cc2)=N1 (stereo unspecified)
Kp at 1 h: 0.15

----------
Listing: pKi of selected compounds
Molecular target: Cannabinoid receptor 2 (Homo sapiens)
Sequence (P34972 whole entry): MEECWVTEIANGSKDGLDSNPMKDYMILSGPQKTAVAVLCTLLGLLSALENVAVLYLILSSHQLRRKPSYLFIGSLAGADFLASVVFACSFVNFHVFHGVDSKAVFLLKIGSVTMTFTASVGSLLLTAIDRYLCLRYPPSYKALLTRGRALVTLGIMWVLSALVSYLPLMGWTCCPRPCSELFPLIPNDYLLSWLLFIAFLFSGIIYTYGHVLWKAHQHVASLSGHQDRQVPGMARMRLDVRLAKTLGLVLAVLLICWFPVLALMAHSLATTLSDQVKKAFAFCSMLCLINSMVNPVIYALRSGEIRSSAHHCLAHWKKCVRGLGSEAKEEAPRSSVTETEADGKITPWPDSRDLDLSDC
Test: Displacement of [3H]- CP55940 from human CB2R expressed in CHO-K1 cells membrane by Cheng-Prusoff equation analysis
Format: cell membranes, Cell membrane
Settings: read-out: Ki
pKi: −log10 of the molar value.

COMPOUND: CS/C(N)=N/C(=N/S(=O)(=O)N1CCOCC1)N1CC(c2ccccc2)C(c2ccc(Cl)cc2)=N1 (stereo not drawn)
TESTED TARGET: Cannabinoid receptor 2 (Homo sapiens)
pKi: < 6.00
--
COMPOUND: N/C(=N\C(=N\S(=O)(=O)N1CCCC1)N1CC(c2ccccc2)C(c2ccc(Cl)cc2)=N1)c1ccc(F)cc1 (stereo not drawn)
TESTED TARGET: Cannabinoid receptor 2 (Homo sapiens)
pKi: < 6.00
--
COMPOUND: CC(C)(C)/C(N)=N/C(=N/S(=O)(=O)N1CCC(C(F)(F)F)CC1)N1CC(c2ccccc2)C(c2ccc(Cl)cc2)=N1 (stereo not drawn)
TESTED TARGET: Cannabinoid receptor 2 (Homo sapiens)
pKi: < 7.00
--
COMPOUND: N/C(=N/C(=N/S(=O)(=O)N1CCCCC1)N1CC(c2ccccc2)C(c2ccc(Cl)cc2)=N1)c1ccc(F)cc1 (stereo not drawn)
TESTED TARGET: Cannabinoid receptor 2 (Homo sapiens)
pKi: 7.44
--
COMPOUND: CC(C)(C)/C(N)=N\C(=N\S(=O)(=O)N1CCCCC1)N1CC(c2ccccc2)C(c2ccc(Cl)cc2)=N1 (stereo not drawn)
TESTED TARGET: Cannabinoid receptor 2 (Homo sapiens)
pKi: < 6.00
--
COMPOUND: C/C(N)=N/C(=N/S(=O)(=O)N1CCOCC1)N1CC(c2ccccc2)C(c2ccc(Cl)cc2)=N1 (stereo not drawn)
TESTED TARGET: Cannabinoid receptor 2 (Homo sapiens)
pKi: < 6.00
--
COMPOUND: CCN(CC)S(=O)(=O)/N=C(/N=C(\N)SC)N1CC(c2ccccc2)C(c2ccc(Cl)cc2)=N1 (stereo not drawn)
TESTED TARGET: Cannabinoid receptor 2 (Homo sapiens)
pKi: 7.15
--
COMPOUND: C/C(N)=N\C(=N\S(=O)(=O)N1CCCCC1)N1C[C@H](c2ccccc2)C(c2ccc(Cl)cc2)=N1
TESTED TARGET: Cannabinoid receptor 2 (Homo sapiens)
pKi: 7.37
